Answer each item with its documented pIC50.
# target or system: HCV NS5B (Hepatitis C virus genotype 1b, UniProt Q9WMX2)
# Construct: The protein was expressed with an 18 amino acid C-terminal truncation to enhance the solubility
# Sequence (Q9WMX2 2420-2992): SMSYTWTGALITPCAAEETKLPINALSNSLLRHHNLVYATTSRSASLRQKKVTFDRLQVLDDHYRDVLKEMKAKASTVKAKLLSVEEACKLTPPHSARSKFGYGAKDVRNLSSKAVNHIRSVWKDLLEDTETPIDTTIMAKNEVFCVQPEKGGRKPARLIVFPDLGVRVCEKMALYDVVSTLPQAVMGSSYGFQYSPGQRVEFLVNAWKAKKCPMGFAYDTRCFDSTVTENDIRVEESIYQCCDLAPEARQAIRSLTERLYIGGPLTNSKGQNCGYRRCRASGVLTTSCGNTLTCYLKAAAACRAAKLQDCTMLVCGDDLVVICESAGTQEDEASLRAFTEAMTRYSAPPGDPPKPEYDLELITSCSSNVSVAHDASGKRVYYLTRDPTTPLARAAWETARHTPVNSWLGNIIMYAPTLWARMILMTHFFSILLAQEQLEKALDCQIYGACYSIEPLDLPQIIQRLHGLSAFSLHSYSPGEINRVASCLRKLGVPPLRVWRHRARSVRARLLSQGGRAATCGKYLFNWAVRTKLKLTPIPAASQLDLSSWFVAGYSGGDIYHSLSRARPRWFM
# assay notes: HCV NS5B RdRp enzyme assay (preincubation protocol)
# assay conditions: HCV NS5B RdRp genotype 1b
pIC50: −log10 of the molar value.

The examples below pair each entry with its known result.
O=C(O)c1ccc2c(C3CCCCC3)c3n(c2c1)CC(c1ncc(CCC(=O)N2CCOCC2)o1)=Cc1ccccc1-3 [Example 36] :: 6.30 to 9.00
COc1ccc2c(c1)CC(c1ncc(CCC(=O)N3CCOCC3)o1)Cn1c-2c(C2CCCCC2)c2ccc(C(=O)O)cc21 (single isomer, unassigned) [Example 51] :: 6.30 to 9.00

Here's the next entry for you.
Query string: Report pIC50 for O=C(O)c1ccc2c(C3CCCCC3)c3n(c2c1)C=C(c1nnn(CC2CCOCC2)n1)Cc1ccccc1-3 [Example 12]
Result string: < 6.30
